Would you kindly list fraction ligated for each of these variants?
B1: minF1; the commonest letter at each place (parent)
chain: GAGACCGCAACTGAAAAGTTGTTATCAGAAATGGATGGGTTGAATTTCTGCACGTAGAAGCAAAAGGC

variants of: B1; experiment: fraction ligated after 30 min (ligated reads / total reads); higher = more ligase activity; conditions: with F1*subA RNA substrate (template-directed ligation), 42 °C

[in] // fraction ligated lookup, key: T25G A31T
[out] 0.0111

[in] I am curious: what fraction ligated value has been reported for C26T A31G ?
[out] 0.52

[in] Fill in the blank: the reported fraction ligated of T23G A31T is ____.
[out] 0.826

[in] Recorded fraction ligated for A27G G33C , please?
[out] 0.35

[in] Consider the variant T23C G42C and give its measured fraction ligated.
[out] 0.00249

[in] Which fraction ligated value is on record for G28C A29T ?
[out] 0.831

[in] What value of fraction ligated has been reported for the following variant? G42A A43C
[out] 0.0101

[in] What fraction ligated value was documented for this variant, A24T G34T ?
[out] 0.00322

[in] Returns the measured fraction ligated for the input variant. Input: A30C G37T
[out] 0.01

[in] Give its fraction ligated value. Item: T25G G34C
[out] 0.00366

[in] Tell me the measured fraction ligated of A27G G34A , please.
[out] 0.207
